target_entity: Phosphatidylinositol 3-kinase catalytic subunit type 3 (Homo sapiens, UniProt Q8NEB9)
Sequence (Q8NEB9 whole entry, the tested form may be a part): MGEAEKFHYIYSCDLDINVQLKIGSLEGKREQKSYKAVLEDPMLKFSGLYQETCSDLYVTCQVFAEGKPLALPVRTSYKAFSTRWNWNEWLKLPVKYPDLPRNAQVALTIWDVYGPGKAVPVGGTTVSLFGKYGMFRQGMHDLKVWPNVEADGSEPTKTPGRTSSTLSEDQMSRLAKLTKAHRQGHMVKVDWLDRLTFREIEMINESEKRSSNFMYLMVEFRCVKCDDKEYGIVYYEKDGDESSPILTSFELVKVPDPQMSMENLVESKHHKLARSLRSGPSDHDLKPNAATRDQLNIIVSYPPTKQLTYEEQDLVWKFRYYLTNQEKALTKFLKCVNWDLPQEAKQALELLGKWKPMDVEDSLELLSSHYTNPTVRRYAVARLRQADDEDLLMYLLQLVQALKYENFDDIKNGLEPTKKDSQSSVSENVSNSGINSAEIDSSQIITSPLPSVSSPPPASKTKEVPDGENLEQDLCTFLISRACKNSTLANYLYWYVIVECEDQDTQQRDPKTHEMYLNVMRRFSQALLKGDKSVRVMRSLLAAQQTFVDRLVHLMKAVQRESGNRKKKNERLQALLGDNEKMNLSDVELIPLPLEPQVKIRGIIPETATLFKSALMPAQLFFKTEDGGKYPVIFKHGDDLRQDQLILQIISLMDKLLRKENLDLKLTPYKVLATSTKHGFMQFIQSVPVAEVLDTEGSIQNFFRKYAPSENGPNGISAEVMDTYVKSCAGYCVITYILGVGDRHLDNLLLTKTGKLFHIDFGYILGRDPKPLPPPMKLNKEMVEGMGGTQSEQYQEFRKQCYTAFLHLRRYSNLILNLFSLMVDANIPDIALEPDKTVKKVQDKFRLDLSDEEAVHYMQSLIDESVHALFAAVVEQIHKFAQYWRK
experiment_notes: Binding affinity to wild-type human partial length VPS34 (S282 to H879 residues) expressed in HEK293 cells measured after 1 hr by Kinomescan method
Type: cell-based
pKd: −log10 of the molar value.
experimental_endpoint: pKd

1 = C[C@@H]1COCCN1c1nc(-c2cnc(N)cc2C(F)F)nc(N2[C@H](C)COC[C@@H]2C)n1
2 = C[C@@H]1COCCN1c1nc(-c2cnc(N)cc2C(F)F)nc(N2CCOCC2(C)C)n1
Please indicate which item has the smaller measured pKd: 1 versus 2 Which one? Tell me its label.
1
(1: 7.19, 2: 7.55)

====

experiment_notes: Metabolic stability in Beagle dog hepatocytes assessed as parent compound remaining at 5 uM incubated for 3 hrs by LC-MS analysis
Type: ADME, cell-based, Canis lupus familiaris, Hepatocyte
conditions_used: read-out: Stabilty
experimental_endpoint: remaining at 3 h, 5 µM (%)
Answer format: numeric, % implied, no suffix.

// recorded remaining at 3 h, 5 µM for C[C@@H]1COCCN1c1nc(-c2cnc(N)cc2C(F)F)nc(N2[C@H](C)COC[C@@H]2C)n1 : 75.6

====

experiment_notes: AUC (0 to 8 hrs) in C57BL/6J mouse brain at 25 mg/kg, po administered as single dose by mass spectrometry based UHPLC analysis
Type: ADME, organism-based
Set-up: time < 8 hr, route oral, dose 25 mg/kg
experimental_endpoint: AUC(0-t) at 8 h (ng·h/mL)

P = CNC(=O)c1cccc(-c2ccc3c(N4CCOC[C@@H]4C)nc(N4CCOC[C@@H]4C)nc3n2)c1
Q = C[C@@H]1COCCN1c1nc(-c2cnc(N)cc2C(F)F)nc(N2[C@H](C)COC[C@@H]2C)n1
Please indicate which item has the smaller measured AUC(0-t) at 8 h: P versus Q Which one? Tell me its label.
P

====

experiment_notes: Tmax in C57BL/6J mouse brain at 25 mg/kg, po administered as single dose by mass spectrometry based UHPLC analysis
Type: ADME, organism-based
experimental_endpoint: Tmax (min)

[[record]]
compound = "CNC(=O)c1cccc(-c2ccc3c(N4CCOC[C@@H]4C)nc(N4CCOC[C@@H]4C)nc3n2)c1 [VISTUSERTIB]"
experimental_endpoint = "Tmax"
observed_value = 30

[[record]]
compound = "C[C@@H]1COCCN1c1nc(-c2cnc(N)cc2C(F)F)nc(N2[C@H](C)COC[C@@H]2C)n1"
experimental_endpoint = "Tmax"
observed_value = 30


====

experiment_notes: AUC (0 to 8 hrs) in C57BL/6J mouse plasma at 25 mg/kg, po administered as single dose by mass spectrometry based UHPLC analysis
Format: ADME, organism-based
Parameters: time < 8 hr, route oral, dose 25 mg/kg
experimental_endpoint: AUC(0-t) at 8 h (ng·h/mL)

I = CNC(=O)c1cccc(-c2ccc3c(N4CCOC[C@@H]4C)nc(N4CCOC[C@@H]4C)nc3n2)c1 [VISTUSERTIB]
II = C[C@@H]1COCCN1c1nc(-c2cnc(N)cc2C(F)F)nc(N2[C@H](C)COC[C@@H]2C)n1
Which record would sort first by descending AUC(0-t) at 8 h, I or II ? Which one? Tell me its label.
I
(I: 33700 ng·h/mL, II: 10300 ng·h/mL)

====

target_entity: Phosphatidylinositol 4-kinase beta (Homo sapiens, UniProt Q9UBF8)
Sequence (Q9UBF8 whole entry): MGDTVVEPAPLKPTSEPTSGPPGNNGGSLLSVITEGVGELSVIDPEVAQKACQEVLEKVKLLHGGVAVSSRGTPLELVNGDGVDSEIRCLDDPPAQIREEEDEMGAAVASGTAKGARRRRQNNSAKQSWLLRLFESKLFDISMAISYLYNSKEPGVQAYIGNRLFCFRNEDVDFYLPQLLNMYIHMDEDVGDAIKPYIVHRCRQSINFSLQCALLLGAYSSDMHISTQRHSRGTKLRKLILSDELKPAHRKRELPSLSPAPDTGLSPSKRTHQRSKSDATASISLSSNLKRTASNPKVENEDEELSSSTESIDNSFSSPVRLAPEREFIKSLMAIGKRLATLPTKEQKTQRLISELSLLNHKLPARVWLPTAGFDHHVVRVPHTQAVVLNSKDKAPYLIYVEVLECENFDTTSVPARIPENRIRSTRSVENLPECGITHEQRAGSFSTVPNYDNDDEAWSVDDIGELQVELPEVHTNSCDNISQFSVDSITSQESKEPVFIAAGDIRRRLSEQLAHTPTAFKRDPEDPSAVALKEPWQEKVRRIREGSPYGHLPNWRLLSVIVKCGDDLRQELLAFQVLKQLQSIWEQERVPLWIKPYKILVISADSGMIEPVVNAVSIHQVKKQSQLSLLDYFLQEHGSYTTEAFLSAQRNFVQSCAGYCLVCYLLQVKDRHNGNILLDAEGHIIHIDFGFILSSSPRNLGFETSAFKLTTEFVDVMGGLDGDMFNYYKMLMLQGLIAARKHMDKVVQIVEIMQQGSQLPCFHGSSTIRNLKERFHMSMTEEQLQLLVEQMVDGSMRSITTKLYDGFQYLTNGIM
experimental_endpoint: Kd

Phosphatidylinositol 4-kinase beta (Homo sapiens, UniProt Q9UBF8) data for C[C@@H]1COCCN1c1nc(-c2cnc(N)cc2C(F)F)nc(N2CCOCC2(C)C)n1 ; its Kd: > 30 µM
